Data provenance is patent US20250361268A1.

# subject of test: FPR2 (Homo sapiens)
# Sequence (P25090 whole entry, species assumed): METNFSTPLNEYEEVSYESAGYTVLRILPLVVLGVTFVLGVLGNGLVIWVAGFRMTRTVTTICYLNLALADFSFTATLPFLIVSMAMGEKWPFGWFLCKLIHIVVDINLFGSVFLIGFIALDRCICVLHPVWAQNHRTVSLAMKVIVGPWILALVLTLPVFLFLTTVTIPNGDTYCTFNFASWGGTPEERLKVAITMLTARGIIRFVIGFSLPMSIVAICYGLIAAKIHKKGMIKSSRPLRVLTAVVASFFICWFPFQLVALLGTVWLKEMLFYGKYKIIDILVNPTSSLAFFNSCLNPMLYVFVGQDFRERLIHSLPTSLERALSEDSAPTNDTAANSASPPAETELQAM
# assay method text: Change in calcium activity by peptide (Fura-2) in RBL cells overexpressing FPR2
# experimental context: calcium activity (Fura-2), graded per Table 3, read-out: EC50 for [Ca^2+] FPR2
Peptide text beside a SMILES is read from it.
Give EC50 for every item shown.

response.value for CSCC[C@@H](NC(=O)[C@@H]1CCCN1C(=O)[C@H](CCCCN)NC(=O)[C@H](Cc1ccc(O)cc1)NC(=O)[C@H](CCCNC(=N)N)NC(=O)[C@H](Cc1c[nH]c2ccccc12)NC(=O)[C@@H](N)CCCNC(=N)N)C(N)=O [Peptide 74] (HELM PEPTIDE1{R.W.R.Y.K.P.[dM].[am]}$$$$V2.0) (field: EC50) = < 10 nM

Entry under test: CSCC[C@H](N)C(=O)N[C@@H](CCCNC(=N)N)C(=O)N[C@@H](Cc1ccc(O)cc1)C(=O)N[C@@H](CCCCN)C(=O)N[C@@H](Cc1ccc(O)cc1)C(=O)N[C@H](CCSC)C(N)=O [Peptide 41] (HELM PEPTIDE1{M.R.Y.K.Y.[dM].[am]}$$$$V2.0) . Its EC50 was < 10 nM

Sure, the documented EC50 for CSCC[C@@H](NC(=O)[C@@H](NC(=O)[C@H](Cc1ccccc1)NC(=O)[C@H](Cc1ccc(O)cc1)NC(=O)[C@H](CCCNC(=N)N)NC(=O)[C@H](Cc1c[nH]c2ccccc12)NC(=O)[C@@H](N)CCCNC(=N)N)C(C)C)C(N)=O [Peptide 160] (HELM PEPTIDE1{R.W.R.Y.F.V.[dM].[am]}$$$$V2.0) is 11 to 100 nM

Entry CSCC[C@H](NC(=O)[C@@H]1CCCN1C(C)=O)C(=O)N[C@@H](CCCCN)C(=O)N[C@@H](Cc1ccc(O)cc1)C(=O)N[C@@H](CCCCN)C(=O)N[C@H](C(=O)N[C@H](CCSC)C(N)=O)C(C)C [Peptide 26] (HELM PEPTIDE1{[ac].P.M.K.Y.K.V.[dM].[am]}$$$$V2.0) , EC50 reported as < 10 nM
